- measured_on: Motilin Receptor (Homo sapiens)
- Construct: host or cells: Ca2+ optimized hematopoietic cell lines (rat)
- Sequence (O43193 whole entry, species assumed): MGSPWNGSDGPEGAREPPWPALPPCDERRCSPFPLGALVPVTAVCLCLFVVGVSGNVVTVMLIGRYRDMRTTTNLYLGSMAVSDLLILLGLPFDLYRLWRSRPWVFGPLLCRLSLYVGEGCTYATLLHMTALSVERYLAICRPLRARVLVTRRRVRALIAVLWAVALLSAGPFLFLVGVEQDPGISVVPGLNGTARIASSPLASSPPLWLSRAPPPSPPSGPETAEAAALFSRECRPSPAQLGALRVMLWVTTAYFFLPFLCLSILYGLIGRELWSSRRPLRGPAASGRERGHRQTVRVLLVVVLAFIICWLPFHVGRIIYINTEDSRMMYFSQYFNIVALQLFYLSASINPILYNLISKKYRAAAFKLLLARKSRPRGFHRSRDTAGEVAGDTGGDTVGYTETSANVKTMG
- test_protocol: Ca2+ assay (FLIPR) for the GPCR motilin receptor, agonist and antagonist mode
- Format: cell-based
- experimental_context: antagonist mode
- Experimental: Ca^2+ Assays for the GPCRs Motilin Receptor, Prostaglandin F (FP) Receptor, 5-hydroxytryptamine 2B (5-HT2B) Receptor, and Purinoreceptor P2Y1 Assays were performed using on a FLIPR^TETRA fluorometric imaging plate reader (Molecular Devices) with ScreenWorks Version 2 (Molecular Devices) as device operating and data analysis software. Dose dependent agonist and antagonist activities were determined. Percentage activation and percentage inhibition values were determined. […]
value_type: IC50 (µM)

// worked examples, IC50 included
| compound | IC50 [µM] |
| --- | --- |
| CN1CC(=O)N2C[C@@H](NC(=O)Cc3cccc4ccccc34)C[C@H]2COc2ccc(F)cc2C(=O)N(C)[C@H](C(=O)NCCN)CCC1=O | 0.023 |
| CN1CC(=O)N2CC(NC(=O)Cc3cccc4ccccc34)CC2COc2ccc(F)cc2C(=O)N(C)C(C(=O)NCCNc2ccccn2)CCC1=O (centres unmarked) | 0.28 |
| CN(C)CCNC(=O)[C@@H]1CCC(=O)N(C)CC(=O)N2C[C@@H](NCCc3cccc4ccccc34)C[C@H]2COc2ccc(F)cc2C(=O)N1C | 0.18 |

a = CN1CC(=O)N2C[C@@H](NC(=O)Cc3c[nH]c4ccccc34)C[C@H]2COc2ccc(F)cc2C(=O)N(C)[C@H](C(=O)NCCc2c[nH]c3ccccc23)CCC1=O
b = CN1CC(=O)N2C[C@@H](NC(=O)Cc3cccc4ccccc34)C[C@H]2COc2ccc(F)cc2C(=O)N(C)[C@H](C(=O)NCCNC(=N)N)CCC1=O
c = CN(C)CCNC(=O)[C@@H]1CCC(=O)N(C)CC(=O)N2C[C@@H](NC(=O)Cc3c[nH]c4ccccc34)C[C@H]2COc2ccc(F)cc2C(=O)N1C
Number of compounds to sort: 3. Sort criterion: IC50, ascending. # the answer lists labels in the order requested
b, c, a
(b: 0.2 µM, c: 0.78 µM, a: 2.7 µM)

----------
- test_protocol: in vitro
- Assay type: in vitro ADME, human
- experimental_context: human, plasma, 4 h, 10 µM
value_type: Plasma Stability 240 min hum [% remain.] (% remain.)

| compound_smiles | value_type | reported_result |
| --- | --- | --- |
| CC(=O)N[C@H]1C[C@H]2COc3ccc(F)cc3C(=O)N(C)[C@H](C(=O)NCCc3c[nH]c4ccccc34)CCC(=O)N(C)CC(=O)N2C1 | Plasma Stability 240 min hum [% remain.] | 99 |
| CN1CC(=O)N2C[C@H](NC(=O)CCc3ccncc3)C[C@H]2COc2ccc(cc2)C(=O)N(C)[C@H](C(=O)NCc2ccc3ccccc3c2)CCC1=O | Plasma Stability 240 min hum [% remain.] | 100 |
| CNC(=O)[C@H]1CCC(=O)N(C)CC(=O)N2C[C@@H](NC(=O)Cc3ccc4ccccc4c3)C[C@H]2COc2ccc(F)cc2C(=O)N1C | Plasma Stability 240 min hum [% remain.] | 100 |

A = CN1CC(=O)N2C[C@H](NC(=O)Cc3ccc4ccccc4c3)C[C@H]2COc2ccc(cc2)C(=O)N(C)[C@H](C(=O)N2CCCC2)CCC1=O
B = CC(C)CN[C@H]1C[C@H]2COc3cccc(c3)C(=O)N(C)[C@H](C(=O)NCc3ccc4ccccc4c3)COCC(=O)N2C1
Two entries are listed, A and B . Which one carries the higher Plasma Stability 240 min hum [% remain.]? Answer with the label corresponding to your selection.
A
(A: 94 % remain., B: 55 % remain.)
